System: 817829-284-R-J1-PDC complex spheroids, viability;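 further: spheroids exposed to agents for 7 days before readout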
protocol.description: Anticancer human tumor 817829-284-R-J1-PDC patient-derived colon adenocarcinoma cell line growth inhibition [GQUAD]; active means viability on the fitted dose curve at most 10% of control; inactive means the rest
details: second compound 0.1 µM; first compound 3.16 µM
Outcomes: active, inactive

>  <molecule>
CCCS(=O)(=O)Nc1ccc(F)c(C(=O)c2c[nH]c3ncc(-c4ccc(Cl)cc4)cc23)c1F + CN(C)c1ccc(Nc2c3ccc(NC(=O)CCN4CCCC4)cc3nc3cc(NC(=O)CCN4CCCC4)ccc23)cc1

>  <class>
inactive

$$$$
>  <molecule>
Nc1ccn(C2OC(CO)C(O)C2(F)F)c(=O)n1 (stereo not given) + CN(C)c1ccc(Nc2c3ccc(NC(=O)CCN4CCCC4)cc3nc3cc(NC(=O)CCN4CCCC4)ccc23)cc1

>  <class>
active

$$$$
>  <molecule>
C=CCn1c(=O)c2cnc(Nc3ccc(N4CCN(C)CC4)cc3)nc2n1-c1cccc(C(C)(C)O)n1 + Cc1[nH]c2ccc(F)cc2c1-c1nc2c3cccnc3c3ncccc3c2[nH]1

>  <class>
active

$$$$
>  <molecule>
C#Cc1c(F)ccc2cc(O)cc(-c3ncc4c(N5CC6CCC(C5)N6)nc(OCC56CCCN5CC(F)C6)nc4c3F)c12 (stereo not given) + CN(C)c1ccc(Nc2c3ccc(NC(=O)CCN4CCCC4)cc3nc3cc(NC(=O)CCN4CCCC4)ccc23)cc1

>  <class>
inactive

$$$$
>  <molecule>
CC1COCCN1c1cc(C2(O)CC3CCC(C2)O3)c2cnn(-c3ccn[nH]3)c2n1 (stereo not given) + CN(C)c1ccc(Nc2c3ccc(NC(=O)CCN4CCCC4)cc3nc3cc(NC(=O)CCN4CCCC4)ccc23)cc1

>  <class>
active

$$$$
>  <molecule>
COc1cc(C2c3cc4c(cc3C(OC3OC5COC(C)OC5C(O)C3O)C3COC(=O)C23)OCO4)cc(OC)c1O (stereo not given) + Cc1[nH]c2ccc(F)cc2c1-c1nc2c3cccnc3c3ncccc3c2[nH]1

>  <class>
inactive

$$$$
>  <molecule>
CCCS(=O)(=O)Nc1ccc(F)c(C(=O)c2c[nH]c3ncc(-c4ccc(Cl)cc4)cc23)c1F + Cc1cnc(CNC(=O)c2c(=O)c3ccc(N4CCCN(C)CC4)nc3n3c2sc2ccccc23)cn1

>  <class>
inactive

$$$$
>  <molecule>
Cc1cccc(N(C)C(=O)C2C(O)CCN2c2nc(C)cc(C(F)(F)F)c2C#N)c1 (stereo not given) + Cc1cnc(CNC(=O)c2c(=O)c3ccc(N4CCCN(C)CC4)nc3n3c2sc2ccccc23)cn1

>  <class>
inactive

$$$$
>  <molecule>
CC(=O)O[C@H]1C(=O)[C@@]2(C)[C@H]([C@H](OC(=O)c3ccccc3)[C@]3(O)C[C@H](OC(=O)[C@H](O)[C@@H](NC(=O)c4ccccc4)c4ccccc4)C(C)=C1C3(C)C)[C@]1(OC(C)=O)CO[C@@H]1C[C@@H]2O + Cc1cnc(CNC(=O)c2c(=O)c3ccc(N4CCCN(C)CC4)nc3n3c2sc2ccccc23)cn1

>  <class>
inactive

$$$$
>  <molecule>
CC1COCCN1c1cc(-c2ccnn2C)c2ccnc(-c3ccn[nH]3)c2n1 (stereo not given) + Cc1cnc(CNC(=O)c2c(=O)c3ccc(N4CCCN(C)CC4)nc3n3c2sc2ccccc23)cn1

>  <class>
active

$$$$
